measurement.target: T1, recombinant human DLL4 (C-terminally His-tagged extracellular domain, R&D Systems) (human, UniProt Q9NR61 25-522, biotinylated in the competition ELISA)
T1 construct: also called rhDLL4; hDLL4
T1 sequence (Q9NR61 25-522): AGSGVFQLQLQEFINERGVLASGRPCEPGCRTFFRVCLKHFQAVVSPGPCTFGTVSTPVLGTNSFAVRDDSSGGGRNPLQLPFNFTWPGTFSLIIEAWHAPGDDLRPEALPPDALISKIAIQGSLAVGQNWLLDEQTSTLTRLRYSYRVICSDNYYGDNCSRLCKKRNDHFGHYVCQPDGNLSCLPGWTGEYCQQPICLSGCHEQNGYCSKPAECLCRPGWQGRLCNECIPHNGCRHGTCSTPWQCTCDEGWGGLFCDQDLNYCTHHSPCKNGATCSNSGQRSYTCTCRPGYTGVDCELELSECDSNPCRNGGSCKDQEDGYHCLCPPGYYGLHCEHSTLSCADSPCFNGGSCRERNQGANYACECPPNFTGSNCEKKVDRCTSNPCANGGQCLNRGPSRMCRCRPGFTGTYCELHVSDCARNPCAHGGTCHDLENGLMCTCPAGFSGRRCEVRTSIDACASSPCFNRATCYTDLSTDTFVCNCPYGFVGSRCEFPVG
assay.details: competition ELISA, biotinylated hDLL4 to coated hNotch1-Fc
IC50 under 1 nM gets label 1, anything at or over 1 nM gets label 0.

Previously resolved entries follow.
Ask: In plain terms, does DLLBII101G08 (VHH, not shown: small tags and cut ends, parent VHH; also called 101G08 (wt); 101G8) VHH: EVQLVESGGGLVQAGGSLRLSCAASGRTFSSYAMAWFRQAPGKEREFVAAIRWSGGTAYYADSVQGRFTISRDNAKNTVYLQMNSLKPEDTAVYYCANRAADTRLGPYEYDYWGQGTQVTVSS come in under 1 nM for IC50?
Result: label 0

Ask: Consider DLLBII133G05 (VHH, not shown: small tags and cut ends) VHH: EVQLVESGGGLVQPGGSLRLSCAASGFTFGSYDMSWVRRSPGKGPEWVSAINSGGGSTYYTDYVKGRFTISRDNAKNTLYLQMNSLKPEDTAVYYCAADRYIWARQGEYWGAYAYDYWGQGTQVTVSS . Does its IC50 lie strictly below 1 nM?
Result: label 0

Ask: Find out if reported IC50 for DLLBII115A05 (VHH, not shown: small tags and cut ends, parent VHH; also called 115A05 (wt); 115A5) VHH: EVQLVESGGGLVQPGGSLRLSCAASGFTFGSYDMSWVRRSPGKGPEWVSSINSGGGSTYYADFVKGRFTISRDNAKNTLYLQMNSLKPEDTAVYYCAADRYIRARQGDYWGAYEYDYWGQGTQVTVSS is less than 1 nM
Result: label 0

Ask: Consider DLLBII130B03 (VHH, not shown: small tags and cut ends) VHH: EVQLVESGGGLVQAGGSLRLSCAASGRTFSSYAMAWYRQAPGKEREYVAAIRWSGGTAYYADSVQGRFTISRDNAKNTVYLQMNSLKPEDTAVYYCANRAPDTRLAPYLYDYWGQGTQVTVSS . Does its IC50 lie strictly below 1 nM?
Result: label 0

Ask: Check if IC50 falls below 1 nM for DLLBII130F06 (VHH, not shown: small tags and cut ends) VHH: EVQLVESGGGLVQAGGSLRLSCAASGRTFSSYAMAWYRQAPGKEREYVAAIRWSGGTAYYADSVQGRFTISRDNAKNTVYLQMNSLKPEDTAVYYCANRAPDTRLAPYEYDYWGQGTQVTVSS .
Result: label 0

Ask: Lab log: compare recorded IC50 with 1 nM; is it strictly lower for DLLBII134D10 (VHH, not shown: small tags and cut ends) VHH: EVQLVESGGGLVQPGGSLRLSCAASGFTIGSYDMSWVRRSPGKGPEWVSSINSGGGSTYYTDYVKGRFTISRDNAKNTLYLQMNSLKPEDTAVYYCAADRYIWARQGEYWGAYAYDYWGQGTQVTVSS ?
Result: label 0

Others:
Ask: Check if IC50 falls below 1 nM for DLLBII129B05 (VHH, not shown: small tags and cut ends) VHH: EVQLVESGGGLVQAGGSLRLSCAASGRTFSSYAMAWYRQAPGKEREYVAAIRWSGGTAYYADSVQGRFTISRDNAKNTVYLQMNSLKPEDTAVYYCANRAPDTRLAPYEYDHWGQGTQVTVSS .
Result: label 1

Ask: is_below(IC50, 1 nM) for DLLBII129D08 (VHH, not shown: small tags and cut ends) VHH: EVQLVESGGGLVQAGGSLRLSCAASGRTFSSYAMAWYRQAPGKEREYVAAIRWSGGTAYYADSVQGRFTISRDNAKNTVYLQMNSLKPEDTAVYYCANRAPDTRLEPYLYDYWGQGTQVTVSS ?
Result: label 0

Ask: Is the reported IC50 for DLLBII129E11 (VHH, not shown: small tags and cut ends) VHH: EVQLVESGGGLVQAGGSLRLSCAASGRTFSSYAMAWYRQAPGKEREYVAAIRWSGGTAYYADSVQGRFTISRDNAKNTVYLQMNSLKPEDTAVYYCANRAPDTRLRPYLYDYWGQGTQVTVSS strictly below 1 nM?
Result: label 0

Ask: Quick check: does DLLBII015 (VHH, not shown: small tags and cut ends) VHH: EVQLVESGGGLVQPGGSLRLSCAASGFTIGSYDMSWVRRSPGKGPEWVSAINSGGGSTYYADYVKGRFTISRDNAKNTLYLQMNSLKPEDTAVYYCAADRYIWARQGEYWGAYAYDYWGQGTQVTVSS have IC50 under 1 nM?
Result: label 1

Ask: I'd appreciate it if you could check whether DLLBII136C07 (VHH, not shown: small tags and cut ends) VHH: EVQLVESGGGLVQPGGSLRLSCAASGFTFGSYDMSWVRRSPGKGPEWVSSINSGGGSTYYADYVKGRFTISRDNAKNTLYLQMNSLKPEDTAVYYCAADRYIWARQGEYWGAYEYDYWGQGTQVTVSS has IC50 smaller than 1 nM.
Result: label 0

Ask: Take the binder DLLBII133A05 (VHH) VHH: EVQLVESGGGLVQPGGSLRLSCAASGFTFGSYDMSWVRRSPGKGPEWVSAINSGGGSTFYTDYVKGRFTISRDNAKNTLYLQMNSLKPEDTAVYYCAADRYIWARQGEYWGAYQYDYWGQGTQVTVSS and say whether its IC50 is less than 1 nM.
Result: label 0
